System: MKNK1;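 further: KINOMEscan kinase panel screen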
Conditions: concentration: 1 μM,replicates: in singlicate; n = 1
Give measured %Inh for each item. Keep answers brief.
Answer as a quantity: numeral, then unit.

| compoundString | targetOrSystem | %Inh |
| --- | --- | --- |
| CN(c1cccc(CNc2nc(Nc3ccc4c(c3)CC(=O)N4)ncc2C(F)(F)F)c1)S(C)(=O)=O | MKNK1 | 0% |
| CCCC(=O)Nc1n[nH]c2ncccc12 | MKNK1 | 0% |
| NC(=O)Nc1sc(-c2ccc(F)cc2)cc1C(N)=O | MKNK1 | 8% |
| O=C(NCC1CC1)c1ccc(-c2cc(C(=O)NC3CC3)ccc2F)cc1 | MKNK1 | 3% |
| C[C@@H]1CCN(C(=O)N2CCCC2)C[C@@H]1N(C)c1ncnc2[nH]ccc12 | MKNK1 | 0% |

For the 4 molecules below, give their %Inh values.
1. C[C@@H](Oc1cc(-n2cnc3ccc(-c4ccncc4)cc32)sc1C(N)=O)c1ccccc1Cl
2. Cn1ccc2ncnc(Oc3ccc(NC(=O)Nc4cncc(C(F)(F)F)c4)c(Cl)c3)c21
3. Cc1n[nH]c2cc(Nc3ccnc(Nc4cccc(CN5CCOCC5)c4)n3)ccc12
4. CN1CCN(CCNc2nc3cc(Oc4ccc(NC(=O)Nc5cc(C(F)(F)F)ccc5F)cc4)ccc3[nH]2)CC1.Cl.Cl

1: 0%; 2: 0%; 3: 23%; 4: 24%

These entries and their values trace back to paper PMC5540273.
